test system: HepG2; assay: GSK_TCMDC: Percent inhibition of human HepG2 cell line. Test compounds present at 10uM.; format: functional
Task for the reader: assign each of the following compounds its reported Inhibition.
Give bare numbers, in %.

For each of the compounds below, state Inhibition.
1. Cc1cc2nc(-c3ccc(/C=C/C(=O)NCc4ccc(Cl)c(Cl)c4)cc3)[nH]c2cc1C
2. O=C(Nc1cccc(-c2cccc(-c3nc4cc(F)ccc4[nH]3)c2)c1)c1ccoc1
3. CCCN(CC1CC1)c1ncc(-c2cccc(CNCCC3CCCN3C)c2)cn1 (stereo not given)
4. O=C(Cc1cccc(Cl)c1)Nc1cccc(-c2c[nH]c3nc(Nc4ccccc4)ncc23)c1.O=C(O)C(F)(F)F

A.
1: 32; 2: 36; 3: 77; 4: 5

Q. Given `Cc1nc2nc(N)nc(N)c2c(C)c1Cc1cccc(C(N)=O)c1.Cl` , respond with its Inhibition.
A. 59
